B1: library; a variant is named by its letters at N, in order (parent)
chain: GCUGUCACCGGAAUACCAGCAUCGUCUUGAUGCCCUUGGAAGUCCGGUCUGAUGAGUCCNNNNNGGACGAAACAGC

Variants of: B1
Experiment: normalized RNA/DNA level without ligand (relative to sTRSVctl = 100) (log10 (% of sTRSVctl)); higher = less ribozyme self-cleavage, higher mRNA level
Details: HEK293T, reporter: mCherry (pCS4076), ligand present: no
# key: entry, value: normalized RNA/DNA level without ligand (log10)
// keep it numeric: no unit symbol after the value

Past entries and their recorded results:
# variant UUCUU ; its normalized RNA/DNA level without ligand (log10) = 1.99

# variant UUCCG ; its normalized RNA/DNA level without ligand (log10) = 2.02

# variant AUAAC ; its normalized RNA/DNA level without ligand (log10) = 1.96

# variant CCACC ; its normalized RNA/DNA level without ligand (log10) = 1.97

# variant CCAAU ; its normalized RNA/DNA level without ligand (log10) = 1.64

# variant UUUAC ; its normalized RNA/DNA level without ligand (log10) = 1.98

New cases:
# variant UGCGU ; its normalized RNA/DNA level without ligand (log10) = 1.92

# variant AGAUU ; its normalized RNA/DNA level without ligand (log10) = 1.74

# variant AAACA ; its normalized RNA/DNA level without ligand (log10) = 1.72

# variant UGAGC ; its normalized RNA/DNA level without ligand (log10) = 1.98

# variant AAAGA ; its normalized RNA/DNA level without ligand (log10) = 1.32

# variant AGUGC ; its normalized RNA/DNA level without ligand (log10) = 1.87

# variant CCACA ; its normalized RNA/DNA level without ligand (log10) = 1.75

# variant UGCCU ; its normalized RNA/DNA level without ligand (log10) = 1.89

# variant UCGAU ; its normalized RNA/DNA level without ligand (log10) = 1.78

# variant AGCGC ; its normalized RNA/DNA level without ligand (log10) = 1.98

# variant ACUAA ; its normalized RNA/DNA level without ligand (log10) = 1.65

# variant ACGUG ; its normalized RNA/DNA level without ligand (log10) = 1.76

# variant GCCAU ; its normalized RNA/DNA level without ligand (log10) = 1.88

# variant UAUUU ; its normalized RNA/DNA level without ligand (log10) = 1.94

# variant ACGGU ; its normalized RNA/DNA level without ligand (log10) = 1.7

# variant AUAUA ; its normalized RNA/DNA level without ligand (log10) = 1.75
